test system: MDA-MB-231 breast; assay: NCI tumour cell line growth inhibition, 48 h; in the data active = GI50 below about 0.43 µM; inactive = the rest
Outcome codes: Y for active, N for inactive

{"columns": ["compound.structure.string", "assigned.category"],
 "data": [
  ["CCc1ccc2c(c1)C(=O)c1c-2n(CCCN=[N+]=[N-])c(=O)c2cc(OC)c(OC)cc12", "N"],
  ["Cc1[nH]c2ccc(F)cc2c1-c1nc2c3cccnc3c3ncccc3c2[nH]1", "Y"],
  ["O=[N+]([O-])c1ccc(N=Nc2ccc(O)c3ccccc23)cc1", "N"],
  ["CCOC(=O)c1cc2c(n1Cc1cc(OC)c(OC)c(OC)c1)-c1oncc1CCC2", "Y"],
  ["C=C1c2ccoc2C[C@H]2[C@H]1CC[C@@]1(O)[C@@](C)(C(=O)OC)CCC[C@]21C", "N"]
]}
